System: HCV 1b_Huh-Luc/Neo-ET cell line persistently expressing a bicistronic genotype 1b replicon in Huh 7 cells
Assay: HCV replicon assay (luciferase readout)
Type: cell-based
Settings: Hepatitis C virus, Huh-7, 72 h, read-out: Inhibition of HCV genotype 1b
Protocol: Biological activity of the compounds of the invention was determined using an HCV replicon assay. The HCV 1b_Huh-Luc/Neo-ET cell line persistently expressing a bicistronic genotype 1b replicon in Huh 7 cells was obtained from ReBLikon GMBH. This cell line was used to test compound inhibition using luciferase enzyme activity readout as a measurement of compound inhibition of replicon levels. […] EC50 values of compounds are determined several times in the replicon assay. […]
Assay readout: EC50

# input # query: EC50 of entry `COC(=O)N[C@H](C(=O)N1CCC[C@H]1c1ncc(-c2ccc(C#Cc3ccc(-c4cnc([C@@H]5CCCN5C(=O)[C@@H](c5ccccc5)N5CCN(C)CC5)[nH]4)cc3)cc2)[nH]1)C(C)C`
# output < 1 nM

# input # query: EC50 of entry `O=C([C@H](O)c1ccccc1)N1CCC[C@H]1c1ncc(C#Cc2ccc(-c3cnc([C@@H]4CCCN4C(=O)[C@H](O)c4ccccc4)[nH]3)cc2)[nH]1`
# output < 1 nM

# input # query: EC50 of entry `COC(=O)N[C@H](C(=O)N[C@@H](C)c1ncc(-c2ccc(C#Cc3ccc4nc([C@H](C)NC(=O)[C@@H](NC(=O)OC)C(C)C)[nH]c4c3)cc2)[nH]1)C(C)C`
# output < 1 nM

# input # query: EC50 of entry `C[C@@H](NC(=O)C1CC1)C(=O)N1CCC[C@H]1c1ncc(C#Cc2ccc(-c3cnc([C@@H]4CCCN4C(=O)[C@@H](C)NC(=O)C4CC4)[nH]3)cc2)[nH]1`
# output 1 to 9.9 nM

# input # query: EC50 of entry COC(=O)NC(C(=O)N1CCC[C@H]1c1ncc(-c2ccc(C#Cc3ccc(-c4cnc([C@@H]5CCCN5C(=O)[C@@H](NC(=O)OC)C(C)C)[nH]4)c(F)c3)cc2)[nH]1)C(C)C (some centres unmarked)
# output < 1 nM

###

system: HCV 1b_Huh-Luc/Neo-ET cell line persistently expressing a bicistronic genotype 1b replicon in Huh 7 cells; assay: HCV replicon assay (luciferase readout); type: cell-based; conditions: Hepatitis C virus, Huh-7, 72 h, read-out: Inhibition of HCV genotype 1b
pEC50: −log10 of the molar value.
Assay readout: pEC50

# input # query: pEC50 of entry `COC(=O)N[C@H](C(=O)N1CCC[C@H]1c1ncc(-c2ccc(C#Cc3ccc(-c4cnc([C@@H]5CCCN5C(=O)[C@@H](c5ccccc5)N5CCCCC5)[nH]4)cc3)cc2)[nH]1)C(C)C`
# output > 9.00

# input # query: pEC50 of entry `CN1CCN(C(=O)N[C@@H](C(=O)N2CCC[C@H]2c2ncc(C#Cc3ccc(-c4cnc([C@@H]5CCCN5C(=O)[C@H](NC(=O)N5CCN(C)CC5)c5ccccc5)[nH]4)cc3)[nH]2)c2ccccc2)CC1`
# output 6.00 to 8.00

# input # query: pEC50 of entry `O=C(N[C@@H](C(=O)N1CCC[C@H]1c1cc(-c2ccc(C#Cc3ccc(-c4cnc([C@@H]5CCCN5C(=O)[C@H](NC(=O)N5CCOCC5)c5ccccc5)[nH]4)cc3)cc2)n[nH]1)c1ccccc1)N1CCOCC1`
# output > 9.00

# input # query: pEC50 of entry `COC(=O)N[C@H](C(=O)N1CCC[C@H]1c1ncc(-c2ccc(C#Cc3ccc(-c4cnc([C@@H]5CCCN5C(=O)[C@@H](NC(=O)N5CCN(CCO)CC5)c5ccccc5)[nH]4)cc3)cc2)[nH]1)C(C)C`
# output 8.00 to 9.00
